Data credit: ChEMBL document CHEMBL5226291

- Tested on: Middle East respiratory syndrome-related coronavirus
- assayDetails: Antiviral activity against wild type MERS-CoV infected in HEK293T/17 cells assessed as inhibition of viral replication by immunoblotting assay
- Type: functional, organism-based
Peptide text beside a SMILES is read from it. * marks the point of attachment. Decanoyl = CCCCCCCCCC(=O)*; CH2Cl = ClC*
measuredQuantity: IC50 (µM)
Give your result in µM as a bare value.

Asked: Value lookup for IC50; key = CCCCCCCCCC(=O)N[C@@H](CCCNC(=N)N)C(=O)N[C@H](C(=O)N[C@@H](CCCCN)C(=O)N[C@@H](CCCNC(=N)N)C(=O)CCl)C(C)C (Decanoyl-RVKR-CH2Cl)
Given back: 75
